Target: T1, hFc tagged human LAG3 ECD recombinant protein (human, UniProt P18627 23-450)
T1 construct: range 23-450; also called biotin labelled hFc tagged human LAG3 ECD; not shown: human IgG Fc tag
T1 sequence (looked up): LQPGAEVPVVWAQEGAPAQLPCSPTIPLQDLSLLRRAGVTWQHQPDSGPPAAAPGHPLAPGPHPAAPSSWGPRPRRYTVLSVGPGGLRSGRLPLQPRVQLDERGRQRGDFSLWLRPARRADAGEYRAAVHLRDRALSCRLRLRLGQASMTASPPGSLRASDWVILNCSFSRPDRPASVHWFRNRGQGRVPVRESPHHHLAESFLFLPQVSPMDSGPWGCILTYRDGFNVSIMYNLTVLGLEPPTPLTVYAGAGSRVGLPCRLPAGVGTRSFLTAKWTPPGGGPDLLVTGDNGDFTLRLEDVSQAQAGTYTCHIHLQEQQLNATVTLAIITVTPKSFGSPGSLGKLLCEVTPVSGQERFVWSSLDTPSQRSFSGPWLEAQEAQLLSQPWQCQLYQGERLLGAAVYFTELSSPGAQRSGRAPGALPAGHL
Test: competitive ELISA format II: biotin hFc-LAG3 ECD binding to coated His-FGL1
Exercise: state measured IC50 for each of the binders provided.
A number alone suffices; assume nM.

For record 047c (antibody, human IgG4, V domains shown, human IgG4 S228P / kappa chimeric antibody; also called chimeric antibody 047; not shown: human kappa light chain constant region (pcDNA3.4-hIgGk vector)) VH: QVQLQQSGAELARPGASVKLSCKASGYSFTSYGVNWVKQRTGQGLEWIGEIYPRSGNTYYNERFGDKATLTADKSSSTAYMEIRSLTSEDSAVYFCARGGTYDGYYYAMDYWGQGTSVTVSS VL: DIVLTQSPASLAVSLGQRATISCRASESVDNFGSSFMHWYQQKPGQAPKLLIYRASNLESGIPARFSGSGSRTDFTLTINPVETDDVATYYCQQVNKDPRTFGGGTKLEIK the listed IC50 is 35.9

For record 027c (antibody, human IgG4, V domains shown, human IgG4 S228P / kappa chimeric antibody; also called chimeric antibody 027; not shown: human kappa light chain constant region (pcDNA3.4-hIgGk vector)) VH: EVKILQSGGGLVQPGGSLKLSCAASGIDFSRYWMSWVRRTPGKGLEWIGEINPDSSTINYAPSLKDKFIISRDNAKNTLYLQMSKVRSEDTALYYCARLGIIPTYHYGSSGYYYAMDYWGQGTSVTVSS VL: DVLMTQTPLSLPVSLGDRASISCRSSQTIVHGNGHTSLEWYLQKPGQSPQLLIYKVSNRFSGVPDRFSASGSGTDFTLTISRVEAEDLGVYYCFQVSHVPYTFGGGTKLEIK the listed IC50 is 6.13

For record 021c (antibody, human IgG4, V domains shown, human IgG4 S228P / kappa chimeric antibody; also called chimeric antibody 021; not shown: human kappa light chain constant region (pcDNA3.4-hIgGk vector)) VH: DIQLQESGPGLVKPSQSLSLTCSVTGYSITSGYYWNWIRQFPGNKLEWMGDISYDGGNNYNPSLKNRISITRDTSKNQFFLKLNSVTTEDTATYYCARDITLTGAMDYWGQGTSVTVSS VL: DIVLTQSPASLAVSLGQRATISCRASESVDNYGISFMHWYQQRPGQPPKLLIYRASNLESGIPARFSGSGSRTDFTLTINPVETDDVATYYCQQSNKDPYTFGGGTKLEIK the listed IC50 is 1.93
